# Tested on: IGROV1 ovarian
# Test: NCI-60 one-dose screen, 48 h (100 = growth as untreated, 0 = no growth, -100 = all killed)
# Stated conditions: 10 µM unless noted
The panel holds about 83,000 compounds, 20% with a hit somewhere; the sample as a whole holds those more often.
Binarize growth at 30%; below is T, at or above is F.

CC(=O)c1cc(O)c2ccccc2c1O    F
CC[C@]12C=CCN3CC[C@@]4(c5cc(NC(=O)CCC(=O)OCc6cn(Cc7ccc(F)cc7)nn6)c(OC)cc5N(C)[C@H]4[C@@](O)(C(=O)OC)[C@@H]1OC(C)=O)[C@@H]32    F
CCOC(=O)Cn1c(O)c(N=Nc2ccc(S(N)(=O)=O)cc2)c2cc(Br)ccc21    F
N#CC1=C(N)Oc2c(sc3c(F)cccc23)C1c1ccc(F)cc1 (configuration not stated)    F

Ask: Item `COc1cc(C(=O)n2nc(N3CCN(C)CC3)c3cc(N)ccc32)cc(OC)c1OC` : growth beneath 30%, strictly?
Reply: F

Ask: Item `CCc1n(Cc2ccc3ccccc3c2)cc[n+]1Cc1ccc2ccccc2c1` : growth beneath 30%, strictly?
Reply: T

Ask: Item `CCN(CC)CCNC(=O)c1cn2ncnc(Oc3ccc(NC(=O)Nc4ccc(Cl)c(C(F)(F)F)c4)c(F)c3)c2c1C` : growth beneath 30%, strictly?
Reply: T

Ask: Item `COc1ccccc1Nc1nc2c(s1)C1=CC[C@H]3[C@@H]4CC[C@H]([C@H](C)CCCC(C)C)[C@@]4(C)CC[C@@H]3[C@@]1(C)CC2` : growth beneath 30%, strictly?
Reply: F

Ask: Item `COc1ccc(/C=C2\COc3ccc(O)cc3C2=O)c(OC)c1OC` : growth beneath 30%, strictly?
Reply: F

---

# System: HS 578T breast
# Test: NCI-60 one-dose screen, 48 h (100 = growth as untreated, 0 = no growth, -100 = all killed)
# Stated conditions: 10 µM unless noted
# Description: Growth inhibition of the HS 578T human tumor cell line is measured as a screen for anti-cancer activity. Cells are grown in 96 well plates and exposed to the test compound for 48 hours. Compounds are tested at a single concentration, which is 10^-5 M for most compounds. The reported endpoint is percent growth (GI% or GIPRCNT), where numbers from 0 - 100% represent growth inhibition, and numbers from -100% - 0 represent cell death. For example, a value of 40 represents 60% growth inhibition. […]
This is part of a sample that, as a whole, favours compounds with a hit. Of some 83,000 tested, about 20% had one in any assay. Calls of active or inactive are those of the source. The calls were made as follows: active = growth percent below 10; inactive = the rest.
Reported metric: growth

Some solved cases for reference:
O=C1Nc2ccc(Br)cc2/C1=N/c1n[nH]c(=S)s1    93.9% (inactive)
CN(C)c1ccc(/C=C/C(=O)c2ccc(-n3cc(CN4CCN(c5cc6c(cc5F)c(=O)c(C(=O)O)cn6C5CC5)CC4)nn3)cc2)cc1    57.4% (inactive)
O=C1/C(=C/c2ccc(-c3ccc(Br)cc3)o2)SC(=S)N1CCc1ccc(O)cc1    59.7% (inactive)
COC(=O)CCC(=O)C(=O)OC    25.2% [10 mM] (inactive)

Ask: Param item = `COc1ccc(C(=O)Nc2ncc(Cc3cccc(Cl)c3)s2)cc1OC` ; retrieve measured growth.
Reply: 30.9% (inactive)
